- run description: MTT-based cytotoxicity assay
- condition summary: human, C8166 cells, concentration causing 50% reduction in total C8166 cell number, means of two separate experiments, read-out: CC50 (50% cytotoxic concentration)
readout: log10 CC50 at 3 day (log10 of the value in µg/mL)
Kindly note that the scale is log10 and the underlying CC50 at 3 day is in µg/mL.

Here's what some known entries look like.
**Q:** Returns the measured log10 CC50 at 3 day for the input compound. Input: CC(=O)N1N=C(c2ccccc2)OC1c1cn(S(=O)(=O)c2ccc(C)cc2)c2ccccc12 (stereo not drawn)
**A:** 1.18

**Q:** Returns the measured log10 CC50 at 3 day for the input compound. Input: CC(=O)N1N=C(c2ccccc2)OC1c1cn(S(=O)(=O)c2ccc(Cl)c([N+](=O)[O-])c2)c2cc(C)ccc12 (stereo not drawn)
**A:** 0.35

**Q:** Returns the measured log10 CC50 at 3 day for the input compound. Input: CC(=O)N1N=C(c2ccccc2)OC1c1cn(S(=O)(=O)c2ccc(Cl)c([N+](=O)[O-])c2)c2ccccc12 (stereo not drawn)
**A:** 0.68

**Q:** Returns the measured log10 CC50 at 3 day for the input compound. Input: COc1ccc(S(=O)(=O)n2cc(C3OC(c4ccccc4)=NN3C(C)=O)c3ccccc32)cc1 (stereo not drawn)
**A:** 1.09

**Q:** Returns the measured log10 CC50 at 3 day for the input compound. Input: CCC(=O)N1N=C(c2ccccc2)OC1c1cn(S(=O)(=O)c2ccc(C)cc2)c2ccc(C#N)cc12 (stereo not drawn)
**A:** 1.99

Provide log10 CC50 at 3 day values for the following items, in order.
1. CCC1(c2cn(S(=O)(=O)c3ccccc3)c3ccccc23)OC(c2ccccc2)=NN1C(C)=O (stereo not drawn)
2. CC(=O)N1N=C(c2ccccc2)OC1c1cn(S(=O)(=O)c2cccc([N+](=O)[O-])c2)c2ccc(C#N)cc12 (stereo not drawn)
3. CC(=O)N1N=C(c2ccccc2)OC1c1cn(S(=O)(=O)c2cccc([N+](=O)[O-])c2)c2ccccc12 (stereo not drawn)
4. CCC(=O)N1N=C(c2ccccc2)OC1c1cn(S(=O)(=O)c2ccc(C)cc2)c2ccccc12 (stereo not drawn)
5. CC(=O)N1N=C(c2ccccc2)OC1c1cn(S(=O)(=O)c2ccc(Cl)cc2)c2ccccc12 (stereo not drawn)

**A:**
2.02
2.13
1.64
1.89
1.22

Provide log10 CC50 at 3 day values for the following items, in order.
1. CC(=O)N1N=C(c2ccccc2)OC1(C)c1cn(S(=O)(=O)c2ccc(Cl)cc2)c2ccc([N+](=O)[O-])cc12 (stereo not drawn)
2. Cc1cn([C@H]2C[C@H](N=[N+]=[N-])[C@@H](CO)O2)c(=O)[nH]c1=O [AZT, 3′-azido-3′-deoxythymidine, reference compound]
3. CC(=O)N1N=C(c2ccccc2)OC1(C)c1cn(S(=O)(=O)c2ccc(C)cc2)c2ccc([N+](=O)[O-])cc12 (stereo not drawn)

**A:**
[1.73, 3.14, 2.12]

**Q:** Returns the measured log10 CC50 at 3 day for the input compound. Input: CC(=O)N1N=C(c2ccccc2)OC1c1cn(S(=O)(=O)c2ccc(Cl)cc2)c2cc(C)ccc12 (stereo not drawn)
**A:** 2.26
